B1: CCNC (parent)
chain: QSSHYLQWILDKQDLLKERQKDLK

Variants of: B1
protocol summary: protein stability index of a GFP-peptide fusion (GPS, HEK-293T) (PSI 1-6); higher = more stable;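 also: lentivirally expressed fusions sorted by FACS into six bins by GFP to DsRed ratio, PSI derived from sequencing read proportions per bin multiplied by bin number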
condition info: c terminus: a fixed tail appended

{"columns": ["mutant label", "protein stability index"],
 "data": [
  ["L16R", 3.78],
  ["Q20C", 2.46],
  ["Q7K", 2.84],
  ["E18D", 3.08],
  ["K24R", 2.57],
  ["L10H", 3.52],
  ["Y5P", 4.47],
  ["L23Y", 1.85],
  ["L23P", 2.59],
  ["R19W", 2.64],
  ["K17E", 3.35],
  ["Y5R", 3.38],
  ["L23V", 2.48],
  ["Q13L", 1.85],
  ["L6A", 3.83],
  ["L6S", 3.99],
  ["L23C", 3.31],
  ["D11V", 2.86],
  ["L10A", 4.22],
  ["W8A", 4.42],
  ["H4V", 2.5],
  ["Q20V", 2.69]
]}
